Numbers sourced from ChEMBL document CHEMBL3259722.

- target.entity: Melatonin receptor type 1B (Homo sapiens, UniProt P49286)
- Sequence (P49286 whole entry): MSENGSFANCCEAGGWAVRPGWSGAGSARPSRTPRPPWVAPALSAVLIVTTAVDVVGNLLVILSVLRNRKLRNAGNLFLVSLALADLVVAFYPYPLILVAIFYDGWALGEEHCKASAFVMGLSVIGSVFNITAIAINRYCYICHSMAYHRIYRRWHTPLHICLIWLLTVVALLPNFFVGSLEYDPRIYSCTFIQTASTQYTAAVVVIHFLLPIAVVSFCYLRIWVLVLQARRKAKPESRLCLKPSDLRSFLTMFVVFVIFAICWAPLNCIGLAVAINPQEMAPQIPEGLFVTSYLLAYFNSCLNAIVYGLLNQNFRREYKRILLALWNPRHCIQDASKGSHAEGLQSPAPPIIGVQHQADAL
- assay.procedure: Binding affinity to MT2 receptor (unknown origin) expressed in HEK293 cells
quantity.name: pIC50
Answers are plain numbers, as −log10 of the molar value.

Record "CCCNC(=O)CCCc1cccc2c1SCCO2" / Melatonin receptor type 1B (Homo sapiens, UniProt P49286), pIC50 recorded as 8.17
